# method-notes: Pharmacokinetics in rat plasma
# Assay type: in vivo, Wistar rats
# run-conditions: Wistar, rat, plasma, po, 100 mg/kg, T1/2, FT-C: normal (blank) rats, oral FT 100 mg kg^−1, n = 6
measured-parameter: half-life (h)

Answered examples (2):
input-smiles	result-number
O=C(/C=C/c1ccc(O)c2c1[C@H](C(=O)O)[C@@H](c1ccc(O)c(O)c1)O2)O[C@H](Cc1ccc(O)c(O)c1)C(=O)O	1.03
O=C(/C=C/c1ccc(O)c(O)c1/C=C/c1ccc(O)c(O)c1)O[C@H](Cc1ccc(O)c(O)c1)C(=O)O	7.38

P: O=C(/C=C/c1ccc(O)c(O)c1)O[C@H](Cc1ccc(O)c(O)c1)C(=O)O
Q: C[C@@H]1O[C@@H](OC[C@H]2O[C@@H](Oc3c(-c4ccc(O)c(O)c4)oc4cc(O)cc(O)c4c3=O)[C@H](O)[C@@H](O)[C@@H]2O)[C@H](O)[C@H](O)[C@H]1O
Task: Hi team, can someone confirm which has the larger half-life: P or Q ? Thanks. Lab log: write the label of the selected item as the result.
Output: Q
(Q: 7.39 h, P: 2.91 h)

====

# method-notes: Pharmacokinetics in rat plasma
# Type: in vivo, Wistar rats
# run-conditions: Wistar, rat, plasma, po, 100 mg/kg, MRT0-∞, FS-C: normal (blank) rats, oral FS 100 mg kg^−1, n = 6
measured-parameter: MRT inf (h)

The following molecules have reported results that may help.
>>> df
                               input_smiles  measured_parameter  units_of_measure  result_number
0  O=C(/C=C/c1ccc(O)c(O)c1)O[C@H](Cc1ccc(O)c(O)c1)C(=O)O             MRT inf                 h           5.48
1  O=C(/C=C/c1ccc(O)c(O)c1/C=C/c1ccc(O)c(O)c1)O[C@H](Cc1ccc(O)c(O)c1)C(=O)O             MRT inf                 h             17

1: O=C(/C=C/c1ccc(O)c2c1[C@H](C(=O)O)[C@@H](c1ccc(O)c(O)c1)O2)O[C@H](Cc1ccc(O)c(O)c1)C(=O)O
2: O=C(O)/C=C/c1ccc(O)c(O)c1
Task: Given the listed records, identify the one among 1 and 2 with higher MRT inf. Answer by stating the label of the chosen item.
Output: 1
(1: 11.1 h, 2: 7.21 h)

====

# method-notes: Stability test of QC samples
# Assay type: physicochemical, rat
# run-conditions: Store at −20 °C for 20 days; high concentration QC sample in rat plasma
measured-parameter: Stability, Accuracy (RE, %)

1: C[C@@H]1O[C@@H](OC[C@H]2O[C@@H](Oc3c(-c4ccc(O)c(O)c4)oc4cc(O)cc(O)c4c3=O)[C@H](O)[C@@H](O)[C@@H]2O)[C@H](O)[C@H](O)[C@H]1O
2: O=C(/C=C/c1ccc(O)c(O)c1)O[C@H](Cc1ccc(O)c(O)c1)C(=O)O
3: O=C(/C=C/c1ccc(O)c(O)c1/C=C/c1ccc(O)c(O)c1)O[C@H](Cc1ccc(O)c(O)c1)C(=O)O
Task: Rank the 3 compounds: largest Stability, Accuracy (RE, %) first, smallest last. Answer by listing the labels in the requested order.
Output: 3, 2, 1

====

# method-notes: Stability test of QC samples
# Type: physicochemical, rat
# run-conditions: Store at −20 °C for 20 days; high concentration QC sample in rat plasma
measured-parameter: Stability, Accuracy (RE, %)

                                   compound  result_number
0  O=C(O)[C@H](O)Cc1ccc(O)c(O)c1 [Danshensu]          −8.83
1  O=C(O)/C=C/c1ccc(O)c(O)c1 [Caffeic acid]           3.39

1: O=C(/C=C/c1ccc(O)c2c1[C@H](C(=O)O)[C@@H](c1ccc(O)c(O)c1)O2)O[C@H](Cc1ccc(O)c(O)c1)C(=O)O [Lithospermic acid]
2: O=C(/C=C/c1ccc(O)c2oc(-c3ccc(O)c(O)c3)cc12)O[C@H](Cc1ccc(O)c(O)c1)C(=O)O [Salvianolic acid C]
Task: Between these two entries, 1 and 2 , state which has the higher Stability, Accuracy (RE, %). Please reply using the label of the selected record.
Output: 1
(1: −0.73%, 2: −1.60%)

====

# method-notes: Pharmacokinetics in rat plasma
# Format: in vivo, Wistar rats
# run-conditions: Wistar, rat, plasma, po, 100 mg/kg, Tmax, FT-C: normal (blank) rats, oral FT 100 mg kg^−1, n = 6
measured-parameter: Tmax (min)

Use the examples below as a reference point.
input-smiles	result-number
O=C(O)/C=C/c1ccc(O)c(O)c1	36.6
O=C(/C=C/c1ccc(O)c2c1[C@H](C(=O)O)[C@@H](c1ccc(O)c(O)c1)O2)O[C@H](Cc1ccc(O)c(O)c1)C(=O)O	13.2

P: C[C@@H]1O[C@@H](OC[C@H]2O[C@@H](Oc3c(-c4ccc(O)c(O)c4)oc4cc(O)cc(O)c4c3=O)[C@H](O)[C@@H](O)[C@@H]2O)[C@H](O)[C@H](O)[C@H]1O
Q: O=C(/C=C/c1ccc(O)c(O)c1/C=C/c1ccc(O)c(O)c1)O[C@H](Cc1ccc(O)c(O)c1)C(=O)O
R: O=C(/C=C/c1ccc(O)c(O)c1)O[C@H](Cc1ccc(O)c(O)c1)C(=O)O
Task: Reorder: Tmax, max to min. In plain terms: list the labels in the order you were asked to.
Output: P, Q, R
(P: 63.6 min, Q: 33.6 min, R: 13.2 min)

====

# method-notes: Pharmacokinetics in rat plasma
# Format: in vivo, Wistar rats
# run-conditions: Wistar, rat, plasma, po, 100 mg/kg, MRT0-∞, FT-C: normal (blank) rats, oral FT 100 mg kg^−1, n = 6
measured-parameter: MRT inf (h)

input-smiles	MRT inf, h
C[C@@H]1O[C@@H](OC[C@H]2O[C@@H](Oc3c(-c4ccc(O)c(O)c4)oc4cc(O)cc(O)c4c3=O)[C@H](O)[C@@H](O)[C@@H]2O)[C@H](O)[C@H](O)[C@H]1O	15.4
O=C(/C=C/c1ccc(O)c2c1[C@H](C(=O)O)[C@@H](c1ccc(O)c(O)c1)O2)O[C@H](Cc1ccc(O)c(O)c1)C(=O)O	8.67
O=C(O)/C=C/c1ccc(O)c(O)c1	10.7

a: O=C(/C=C/c1ccc(O)c(O)c1/C=C/c1ccc(O)c(O)c1)O[C@H](Cc1ccc(O)c(O)c1)C(=O)O
b: O=C(/C=C/c1ccc(O)c(O)c1)O[C@H](Cc1ccc(O)c(O)c1)C(=O)O
Task: Hi, I'm comparing a with b and wondering which one has the bigger number for MRT inf. Any idea? Respond using the label that marks the chosen record.
Output: a

====

# method-notes: Stability test of QC samples
# Type: physicochemical, rat
# run-conditions: Store at −20 °C for 20 days; low concentration QC sample in rat plasma
measured-parameter: Stability, Accuracy (RE, %)

                                   compound  result_number
0  O=C(O)/C=C/c1ccc(O)c(O)c1 [Caffeic acid]         −12.26

P: O=C(/C=C/c1ccc(O)c2c1[C@H](C(=O)O)[C@@H](c1ccc(O)c(O)c1)O2)O[C@H](Cc1ccc(O)c(O)c1)C(=O)O [Lithospermic acid]
Q: O=C(/C=C/c1ccc(O)c2oc(-c3ccc(O)c(O)c3)cc12)O[C@H](Cc1ccc(O)c(O)c1)C(=O)O [Salvianolic acid C]
Task: Which has the higher Stability, Accuracy (RE, %), P or Q ? Give the label under which the chosen entry appears.
Output: Q
(Q: −1.94%, P: −8.45%)

====

# method-notes: Pharmacokinetics in rat plasma
# Type: in vivo, Wistar rats
# run-conditions: Wistar, rat, plasma, po, 100 mg/kg, T1/2, FS-C: normal (blank) rats, oral FS 100 mg kg^−1, n = 6
measured-parameter: half-life (h)

For orientation, consider the following solved cases.
>>> print(df.to_string())
                               input_smiles  measured_parameter  result_number
0  O=C(/C=C/c1ccc(O)c(O)c1/C=C/c1ccc(O)c(O)c1)O[C@H](Cc1ccc(O)c(O)c1)C(=O)O           half-life           9.92
1  O=C(/C=C/c1ccc(O)c2c1[C@H](C(=O)O)[C@@H](c1ccc(O)c(O)c1)O2)O[C@H](Cc1ccc(O)c(O)c1)C(=O)O           half-life           5.06

1: O=C(O)/C=C/c1ccc(O)c(O)c1
2: O=C(/C=C/c1ccc(O)c(O)c1)O[C@H](Cc1ccc(O)c(O)c1)C(=O)O
Task: Between these two entries, 1 and 2 , state which has the higher half-life. Write the label of whichever entry you select.
Output: 1
(1: 3.62 h, 2: 2.42 h)

====

# method-notes: Pharmacokinetics in rat plasma
# Format: in vivo, Wistar rats
# run-conditions: Wistar, rat, plasma, po, 100 mg/kg, CLz/F, FT-C: normal (blank) rats, oral FT 100 mg kg^−1, n = 6
measured-parameter: CL/F (mL/min/kg)

I: O=C(/C=C/c1ccc(O)c(O)c1/C=C/c1ccc(O)c(O)c1)O[C@H](Cc1ccc(O)c(O)c1)C(=O)O
II: O=C(/C=C/c1ccc(O)c2c1[C@H](C(=O)O)[C@@H](c1ccc(O)c(O)c1)O2)O[C@H](Cc1ccc(O)c(O)c1)C(=O)O
Task: Of I and II , whose reported CL/F is numerically smaller? Select an item and report its label.
Output: I

a: O=C(O)/C=C/c1ccc(O)c(O)c1
b: C[C@@H]1O[C@@H](OC[C@H]2O[C@@H](Oc3c(-c4ccc(O)c(O)c4)oc4cc(O)cc(O)c4c3=O)[C@H](O)[C@@H](O)[C@@H]2O)[C@H](O)[C@H](O)[C@H]1O
c: O=C(/C=C/c1ccc(O)c(O)c1)O[C@H](Cc1ccc(O)c(O)c1)C(=O)O
Task: Rank items: key CL/F, increasing. Would you mind listing the labels in the order asked for?
Output: a, b, c
(a: 10.2 mL/min/kg, b: 342 mL/min/kg, c: 3430 mL/min/kg)
